biological target: panel of 442 kinases (Homo sapiens, UniProt P10721, A829P); construct: purchased Ambit Biosciences (scanMAXX KINOMEscan); assay: biochemical; type: binding; conditions: kinase KIT(A829P); 1 µM; read-out: % of control at 1 µM
Sequence (P10721 26-976 A829P): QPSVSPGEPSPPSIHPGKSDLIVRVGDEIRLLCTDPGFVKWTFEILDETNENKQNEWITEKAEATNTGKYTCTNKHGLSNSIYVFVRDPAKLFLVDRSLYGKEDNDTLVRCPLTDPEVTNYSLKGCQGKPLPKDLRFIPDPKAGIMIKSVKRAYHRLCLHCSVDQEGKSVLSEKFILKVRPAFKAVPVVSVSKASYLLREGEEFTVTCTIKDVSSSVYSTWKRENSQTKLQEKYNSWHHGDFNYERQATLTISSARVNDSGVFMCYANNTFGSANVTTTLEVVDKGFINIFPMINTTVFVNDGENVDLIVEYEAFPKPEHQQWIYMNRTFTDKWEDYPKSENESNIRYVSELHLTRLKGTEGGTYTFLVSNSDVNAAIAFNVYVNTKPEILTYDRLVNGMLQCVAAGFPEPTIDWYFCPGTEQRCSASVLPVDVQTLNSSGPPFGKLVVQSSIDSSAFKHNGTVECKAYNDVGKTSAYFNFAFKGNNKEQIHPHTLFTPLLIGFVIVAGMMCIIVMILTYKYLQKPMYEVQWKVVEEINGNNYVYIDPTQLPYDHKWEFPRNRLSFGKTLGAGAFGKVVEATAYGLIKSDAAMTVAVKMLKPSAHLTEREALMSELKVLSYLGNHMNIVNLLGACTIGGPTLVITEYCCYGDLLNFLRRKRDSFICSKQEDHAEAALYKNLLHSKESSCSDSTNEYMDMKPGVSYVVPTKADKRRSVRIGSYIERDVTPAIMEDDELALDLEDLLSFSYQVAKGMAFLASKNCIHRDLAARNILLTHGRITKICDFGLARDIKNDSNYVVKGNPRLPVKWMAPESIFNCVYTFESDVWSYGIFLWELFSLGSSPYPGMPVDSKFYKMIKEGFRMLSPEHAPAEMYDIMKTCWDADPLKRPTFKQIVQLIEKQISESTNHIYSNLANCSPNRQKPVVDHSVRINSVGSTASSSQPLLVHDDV
VALUE_TYPE: remaining activity at 1 µM (%)
Answers are plain numbers, in %.

Reference set, count: 3
SMILES_RECORD | VALUE_TYPE | ASSAY_RESULT
FC(F)c1nc2ccccc2n1-c1nc(N2CCOCC2)nc(N2CCOCC2)n1 | remaining activity at 1 µM | 90
COc1ncc(-c2ccc3nccc(-c4ccnnc4)c3c2)cc1NS(=O)(=O)c1ccc(F)cc1F | remaining activity at 1 µM | 100
Nc1cc(C(F)(F)F)c(-c2cc(N3CCOCC3)nc(N3CCOCC3)n2)cn1 | remaining activity at 1 µM | 100

--- query ---
Inquiry: Sample Cn1c(=O)n(-c2ccc(C(C)(C)C#N)cc2)c2c3cc(-c4cnc5ccccc5c4)ccc3ncc21 — what was its remaining activity at 1 µM?
Reply text: 61

====

Molecular target: panel of 442 kinases (Homo sapiens, UniProt Q9UPZ9)
Construct: purchased Ambit Biosciences (scanMAXX KINOMEscan)
Sequence (Q9UPZ9 1-632): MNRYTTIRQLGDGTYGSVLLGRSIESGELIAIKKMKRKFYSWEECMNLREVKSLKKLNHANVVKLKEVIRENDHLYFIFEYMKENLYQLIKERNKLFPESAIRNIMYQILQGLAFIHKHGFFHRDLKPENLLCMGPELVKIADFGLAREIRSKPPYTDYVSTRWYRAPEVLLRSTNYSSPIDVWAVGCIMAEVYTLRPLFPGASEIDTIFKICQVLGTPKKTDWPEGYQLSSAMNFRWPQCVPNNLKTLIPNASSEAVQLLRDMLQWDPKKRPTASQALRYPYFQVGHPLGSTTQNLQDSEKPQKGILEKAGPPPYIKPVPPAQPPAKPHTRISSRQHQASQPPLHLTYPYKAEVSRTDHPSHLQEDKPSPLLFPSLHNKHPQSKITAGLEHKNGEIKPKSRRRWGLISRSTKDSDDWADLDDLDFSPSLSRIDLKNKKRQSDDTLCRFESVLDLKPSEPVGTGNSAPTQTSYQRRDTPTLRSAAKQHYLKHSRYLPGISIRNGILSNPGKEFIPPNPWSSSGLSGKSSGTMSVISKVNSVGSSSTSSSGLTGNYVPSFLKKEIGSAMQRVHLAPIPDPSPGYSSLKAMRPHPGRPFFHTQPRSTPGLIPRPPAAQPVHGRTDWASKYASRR
Test: biochemical
Format: binding
Settings: kinase ICK; 1 µM; read-out: % of control at 1 µM
Please provide measured remaining activity at 1 µM for the entries that follow.
Give bare numbers, in %.

Reference set, count: 3
SMILES_RECORD | VALUE_TYPE | UNITS_TEXT | ASSAY_RESULT
FC(F)c1nc2ccccc2n1-c1nc(N2CCOCC2)nc(N2CCOCC2)n1 | remaining activity at 1 µM | % | 89
COc1ncc(-c2ccc3nccc(-c4ccnnc4)c3c2)cc1NS(=O)(=O)c1ccc(F)cc1F | remaining activity at 1 µM | % | 87
Cn1c(=O)n(-c2ccc(C(C)(C)C#N)cc2)c2c3cc(-c4cnc5ccccc5c4)ccc3ncc21 | remaining activity at 1 µM | % | 68

--- query ---
Inquiry: Sample Nc1cc(C(F)(F)F)c(-c2cc(N3CCOCC3)nc(N3CCOCC3)n2)cn1 — what was its remaining activity at 1 µM?
Reply text: 92
